# Assay Overview: Pharmacokinetic assessment of plasma concentrations (LC-MS/MS, non-compartmental analysis) after mono/dual and triple therapy
# Applied Conditions: male, human, plasma, po, Tmax, ilaprazole 10 mg oral with clarithromycin 500 mg and amoxicillin 1000 mg (triple therapy, day 5 of period 2, part 1); N = 13; median (min–max)
Measured Attribute: Tmax (h)
Numbers only here, please. The scale is h.

Query (compound): COc1ccnc(C[S+]([O-])c2nc3cc(-n4cccc4)ccc3[nH]2)c1C (stereo not shown) [Ilaprazole, ilaprazole] ; field requested: Tmax
3

* * *

# Assay Overview: Pharmacokinetic assessment of plasma concentrations (LC-MS/MS, non-compartmental analysis) after mono/dual and triple therapy
# Applied Conditions: male, human, plasma, oral, 10 mg, AUClast, geometric least square mean, ilaprazole monotherapy, period 1 of part 1; N = 13
Measured Attribute: AUC(0-t)
State the value, then name its unit.

Query (compound): COc1ccnc(C[S+]([O-])c2nc3cc(-n4cccc4)ccc3[nH]2)c1C (stereo not shown) [Ilaprazole, ilaprazole] ; field requested: AUC(0-t)
3140 ng·h/mL

* * *

# Assay Overview: Pharmacokinetic assessment of plasma concentrations (LC-MS/MS, non-compartmental analysis) after mono/dual and triple therapy
# Applied Conditions: male, human, plasma, oral, 10 mg, AUClast, ilaprazole monotherapy, period 1 of part 1; N = 13; arithmetic mean (SD)
Measured Attribute: AUC(0-t)

Query (molecule): COc1ccnc(C[S+]([O-])c2nc3cc(-n4cccc4)ccc3[nH]2)c1C (stereo not shown) ; field requested: AUC(0-t)
3300 ng·h/mL

* * *

# Assay Overview: Pharmacokinetic assessment of plasma concentrations (LC-MS/MS, non-compartmental analysis) after mono/dual and triple therapy
# Applied Conditions: male, human, plasma, oral, Vd/F, ilaprazole in triple therapy, period 2 of part 1; N = 13; arithmetic mean (SD)
Measured Attribute: Vd/F (L)
Numbers only here, please. The scale is L.

Query (molecule): COc1ccnc(C[S+]([O-])c2nc3cc(-n4cccc4)ccc3[nH]2)c1C (stereo not shown) ; field requested: Vd/F
20.4

* * *

Reported AUC(0-t) values for the following compounds.
# Assay Overview: Pharmacokinetic assessment of plasma concentrations (LC-MS/MS, non-compartmental analysis) after mono/dual and triple therapy
# Applied Conditions: male, human, plasma, oral, AUClast, geometric least square mean, dual therapy, period 1 of part 2; N = 15
Numbers only here, please. The scale is ng·h/mL.

Query (compound): `CC[C@H]1OC(=O)[C@H](C)[C@@H](O[C@H]2C[C@@](C)(OC)[C@@H](O)[C@H](C)O2)[C@H](C)[C@@H](O[C@@H]2O[C@H](C)C[C@H](N(C)C)[C@H]2O)[C@](C)(OC)C[C@@H](C)C(=O)[C@H](C)[C@@H](O)[C@]1(C)O` ; field requested: AUC(0-t)
14000

Now for another entry.
Query (compound): `CC1(C)S[C@@H]2[C@H](NC(=O)[C@H](N)c3ccc(O)cc3)C(=O)N2[C@H]1C(=O)O` ; field requested: AUC(0-t)
26700

* * *

# Assay Overview: Pharmacokinetic assessment of plasma concentrations (LC-MS/MS, non-compartmental analysis) after mono/dual and triple therapy
# Applied Conditions: male, human, plasma, oral, Cmax, geometric least square mean, ilaprazole in triple therapy, period 2 of part 1; N = 13
Measured Attribute: Cmax (ng/mL)
Numbers only here, please. The scale is ng/mL.

Query (molecule): COc1ccnc(C[S+]([O-])c2nc3cc(-n4cccc4)ccc3[nH]2)c1C (stereo not shown) [Ilaprazole, ilaprazole] ; field requested: Cmax
414

* * *

# Assay Overview: Pharmacokinetic assessment of plasma concentrations (LC-MS/MS, non-compartmental analysis) after mono/dual and triple therapy
# Applied Conditions: male, human, plasma, oral, Cmax, geometric least square mean, dual therapy, period 1 of part 2; N = 15
Reported Cmax values for the following compounds.
Numbers only here, please. The scale is ng/mL.

Query (compound): `CC[C@H]1OC(=O)[C@H](C)[C@@H](O[C@H]2C[C@@](C)(OC)[C@@H](O)[C@H](C)O2)[C@H](C)[C@@H](O[C@@H]2O[C@H](C)C[C@H](N(C)C)[C@H]2O)[C@](C)(OC)C[C@@H](C)C(=O)[C@H](C)[C@@H](O)[C@]1(C)O` ; field requested: Cmax
1770

Now for another entry.
Query (compound): `CC1(C)S[C@@H]2[C@H](NC(=O)[C@H](N)c3ccc(O)cc3)C(=O)N2[C@H]1C(=O)O` ; field requested: Cmax
9140

* * *

# Assay Overview: Pharmacokinetic assessment of plasma concentrations (LC-MS/MS, non-compartmental analysis) after mono/dual and triple therapy
# Applied Conditions: male, human, plasma, po, Tmax, clarithromycin 500 mg + amoxicillin 1000 mg oral single dose (dual therapy, period 1 of part 2); N = 15; median (min–max)
Measured Attribute: Tmax (h)
Numbers only here, please. The scale is h.

Query (molecule): `CC[C@H]1OC(=O)[C@H](C)[C@@H](O[C@H]2C[C@@](C)(OC)[C@@H](O)[C@H](C)O2)[C@H](C)[C@@H](O[C@@H]2O[C@H](C)C[C@H](N(C)C)[C@H]2O)[C@](C)(OC)C[C@@H](C)C(=O)[C@H](C)[C@@H](O)[C@]1(C)O` ; field requested: Tmax
2

Now for another entry.
Query (molecule): `CC1(C)S[C@@H]2[C@H](NC(=O)[C@H](N)c3ccc(O)cc3)C(=O)N2[C@H]1C(=O)O` ; field requested: Tmax
1.5

* * *

Reported Cmax values for the following compounds.
# Assay Overview: Pharmacokinetic assessment of plasma concentrations (LC-MS/MS, non-compartmental analysis) after mono/dual and triple therapy
# Applied Conditions: male, human, plasma, oral, Cmax, triple therapy, period 2 of part 2; N = 15; arithmetic mean (SD)
State the value, then name its unit.

Query (compound): `CC1(C)S[C@@H]2[C@H](NC(=O)[C@H](N)c3ccc(O)cc3)C(=O)N2[C@H]1C(=O)O` ; field requested: Cmax
8140 ng/mL

Next:
Query (compound): `CC[C@H]1OC(=O)[C@H](C)[C@@H](O[C@H]2C[C@@](C)(OC)[C@@H](O)[C@H](C)O2)[C@H](C)[C@@H](O[C@@H]2O[C@H](C)C[C@H](N(C)C)[C@H]2O)[C@](C)(OC)C[C@@H](C)C(=O)[C@H](C)[C@@H](O)[C@]1(C)O` ; field requested: Cmax
1720 ng/mL

* * *

# Assay Overview: Pharmacokinetic assessment of plasma concentrations (LC-MS/MS, non-compartmental analysis) after mono/dual and triple therapy
# Applied Conditions: male, human, plasma, oral, AUCinf, triple therapy, period 2 of part 2; N = 15; arithmetic mean (SD)
Measured Attribute: AUC(0-inf) (ng·h/mL)
Numbers only here, please. The scale is ng·h/mL.

Query (molecule): CC[C@H]1OC(=O)[C@H](C)[C@@H](O[C@H]2C[C@@](C)(OC)[C@@H](O)[C@H](C)O2)[C@H](C)[C@@H](O[C@@H]2O[C@H](C)C[C@H](N(C)C)[C@H]2O)[C@](C)(OC)C[C@@H](C)C(=O)[C@H](C)[C@@H](O)[C@]1(C)O [Clarithromycin, clarithromycin] ; field requested: AUC(0-inf)
16900

Next:
Query (molecule): CC1(C)S[C@@H]2[C@H](NC(=O)[C@H](N)c3ccc(O)cc3)C(=O)N2[C@H]1C(=O)O [Amoxicillin, amoxicillin] ; field requested: AUC(0-inf)
27400

* * *

# Assay Overview: Pharmacokinetic assessment of plasma concentrations (LC-MS/MS, non-compartmental analysis) after mono/dual and triple therapy
# Applied Conditions: male, human, plasma, oral, AUClast, dual therapy, period 1 of part 2; N = 15; arithmetic mean (SD)
Measured Attribute: AUC(0-t) (ng·h/mL)
Numbers only here, please. The scale is ng·h/mL.

Query (compound): `CC1(C)S[C@@H]2[C@H](NC(=O)[C@H](N)c3ccc(O)cc3)C(=O)N2[C@H]1C(=O)O` ; field requested: AUC(0-t)
27900

Now for another entry.
Query (compound): `CC[C@H]1OC(=O)[C@H](C)[C@@H](O[C@H]2C[C@@](C)(OC)[C@@H](O)[C@H](C)O2)[C@H](C)[C@@H](O[C@@H]2O[C@H](C)C[C@H](N(C)C)[C@H]2O)[C@](C)(OC)C[C@@H](C)C(=O)[C@H](C)[C@@H](O)[C@]1(C)O` ; field requested: AUC(0-t)
14600

* * *

# Assay Overview: Pharmacokinetic assessment of plasma concentrations (LC-MS/MS, non-compartmental analysis) after mono/dual and triple therapy
# Applied Conditions: male, human, plasma, oral, 10 mg, mean AUCinf, ilaprazole monotherapy
Measured Attribute: AUC(0-inf)

Query (compound): COc1ccnc(C[S+]([O-])c2nc3cc(-n4cccc4)ccc3[nH]2)c1C (stereo not shown) ; field requested: AUC(0-inf)
3390 ng·h/mL

* * *

# Assay Overview: Pharmacokinetic assessment of plasma concentrations (LC-MS/MS, non-compartmental analysis) after mono/dual and triple therapy
# Applied Conditions: male, human, plasma, oral, 10 mg, AUCinf, ilaprazole monotherapy, period 1 of part 1; N = 13; arithmetic mean (SD)
Measured Attribute: AUC(0-inf) (ng·h/mL)
Numbers only here, please. The scale is ng·h/mL.

Query (compound): COc1ccnc(C[S+]([O-])c2nc3cc(-n4cccc4)ccc3[nH]2)c1C (stereo not shown) ; field requested: AUC(0-inf)
3390
